- assayed-target: cynomolgus monkey heterodimeric single-chain CD3εγ extracellular domain (cynomolgus monkey, UniProt Q95LI5 22-117; Q95LI7 23-113)
- Sequence (Q95LI7 other isoform, or with tags, fused parts or gaps): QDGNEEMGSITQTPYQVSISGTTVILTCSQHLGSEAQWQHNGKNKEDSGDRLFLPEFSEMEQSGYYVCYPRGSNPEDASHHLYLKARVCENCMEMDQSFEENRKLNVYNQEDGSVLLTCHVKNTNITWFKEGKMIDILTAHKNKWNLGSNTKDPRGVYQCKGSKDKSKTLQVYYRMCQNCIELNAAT
- protocol-details: SPR; ratio of the KDs for cyno and human single-chain CD3εγ
metric: KD (human)/KD (cyno)
// no unit string in output, number only

Asked: Would you mind telling me what KD (human)/KD (cyno) value was observed for clone-11 (antibody, V domains shown, Recombinant rabbit IgG) VH: QSLEESGGRLVTPGTPLTLTCTVSGFPLSSYAMGWFRQAPGKGLEWIGMILRADNTYYASWVNGRFTISKTSTTVDLKITSPTTEDTATYFCARRHYNTYGYPVAIGDLWGPGTLVTVSS VL: AQVLTQTPSSVSAAVGGTVTINCQSSQSVYNNNRLSWFQQKPGQPPKLLIYTASSLASGVPSRFKGSGSGTEFTLTISDLECADAATYYCQGEFSCSSADCFTFGGGTEVVVKG ?
Given back: 3
